IC50 values for the compounds below.
# TESTED_TARGET: GPR84 (Homo sapiens)
# Construct: expressed in transfected cells
# PROTOCOL_SUMMARY: GPR84 [35S]GTPγS binding assay, HEPES buffer
# Format: biochemical
# TEST_SETTINGS: 3,3′ di indolylmethane at EC80, membranes from stable cell line over expressing GPR84

COMPOUND | IC50
CNC(=O)c1ccc(-c2ccc3c(c2)CCn2c-3cc(OCC3COc4ncccc4O3)nc2=O)cn1 (stereo not shown) | 0.01 to 100 nM
COc1cccc(-c2ccc3c(c2)CCn2c-3cc(OCC3CCCO3)nc2=O)c1 (stereo not shown) | 100 to 500 nM
CCCCn1nnnc1COc1ccc2c(c1)CCn1c-2cc(OCC2COc3ccccc3O2)nc1=O (stereo not shown) | 0.01 to 100 nM
COC(=O)c1ccc(COc2ccc3c(c2)CCn2c-3cc(OCC3CCCO3)nc2=O)cc1 (stereo not shown) | 100 to 500 nM

----------
Items are presented alongside their recorded IC50.
# TESTED_TARGET: GPR84 (Homo sapiens, UniProt Q9NQS5)
# Construct: expressed in transfected cells
# Sequence (Q9NQS5 whole entry): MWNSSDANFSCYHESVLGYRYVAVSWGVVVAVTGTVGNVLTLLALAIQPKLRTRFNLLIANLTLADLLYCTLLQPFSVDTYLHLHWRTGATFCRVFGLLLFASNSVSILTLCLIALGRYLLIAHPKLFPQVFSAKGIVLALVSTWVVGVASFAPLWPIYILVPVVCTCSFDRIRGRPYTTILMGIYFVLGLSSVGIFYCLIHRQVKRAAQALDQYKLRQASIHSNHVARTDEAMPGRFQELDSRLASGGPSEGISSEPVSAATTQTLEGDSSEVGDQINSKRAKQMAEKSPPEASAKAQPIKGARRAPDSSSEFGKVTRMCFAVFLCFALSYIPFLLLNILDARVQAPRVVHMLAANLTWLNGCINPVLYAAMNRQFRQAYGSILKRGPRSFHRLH
# PROTOCOL_SUMMARY: GPR84 [35S]GTPγS binding assay, HEPES buffer
# Format: biochemical
# TEST_SETTINGS: 3,3′ di indolylmethane at EC80, membranes from stable cell line over expressing GPR84

COMPOUND | TESTED_TARGET | IC50
N#CCNc1ccc2c(c1)CCn1c-2cc(OCC2COc3ncccc3O2)nc1=O (stereo not drawn) [compound 151] | GPR84 (Homo sapiens, UniProt Q9NQS5) | 100 to 500 nM
CCCn1nnnc1COc1ccc2c(c1)CCn1c-2cc(OCC2COc3ccccc3O2)nc1=O (stereo not drawn) [compound 69] | GPR84 (Homo sapiens, UniProt Q9NQS5) | 0.01 to 100 nM
COc1cccc(-c2ccc3c(c2)CCn2c-3cc(OCC3COc4ncccc4O3)nc2=O)c1OC (stereo not drawn) [compound 167] | GPR84 (Homo sapiens, UniProt Q9NQS5) | 0.01 to 100 nM
O=c1nc(OCC2CCCO2)cc2n1CCc1cc(OCc3ccncc3)ccc1-2 (stereo not drawn) [compound 13] | GPR84 (Homo sapiens, UniProt Q9NQS5) | 100 to 500 nM
O=c1nc(OC[C@@H]2COc3ncccc3O2)cc2n1CCc1cc(OCc3ncco3)ccc1-2 [compound 190] | GPR84 (Homo sapiens, UniProt Q9NQS5) | 100 to 500 nM
O=c1nc(OCC2CCCO2)cc2n1CCc1cc(OCc3cccnc3)ccc1-2 (stereo not drawn) [compound 8] | GPR84 (Homo sapiens, UniProt Q9NQS5) | 100 to 500 nM
O=c1nc(OCC2CCCO2)cc2n1CCc1cc(OCc3cccc(-c4ccoc4)n3)ccc1-2 (stereo not drawn) [compound 56] | GPR84 (Homo sapiens, UniProt Q9NQS5) | 0.01 to 100 nM
Cc1cc(COc2ccc3c(c2)CCn2c-3cc(OCC3COc4ncccc4O3)nc2=O)on1 (stereo not drawn) [compound 159] | GPR84 (Homo sapiens, UniProt Q9NQS5) | 0.01 to 100 nM
NC(=O)c1ccc(-c2ccc3c(c2)CCn2c-3cc(OCC3CCCO3)nc2=O)cc1 (stereo not drawn) [compound 106] | GPR84 (Homo sapiens, UniProt Q9NQS5) | 100 to 500 nM
COc1ccccc1-c1ccc2c(c1)CCn1c-2cc(OCC2CCCO2)nc1=O (stereo not drawn) [compound 99] | GPR84 (Homo sapiens, UniProt Q9NQS5) | 100 to 500 nM
O=c1nc(OCC2CCCO2)cc2n1CCc1cc(OCCc3ccccc3)ccc1-2 (stereo not drawn) [compound 12] | GPR84 (Homo sapiens, UniProt Q9NQS5) | 100 to 500 nM
O=c1nc(OCC2COc3ncccc3O2)cc2n1CCc1cc(-c3ccoc3)ccc1-2 (stereo not drawn) [compound 148] | GPR84 (Homo sapiens, UniProt Q9NQS5) | 0.01 to 100 nM
